Data origin, for the record: paper PMC6894747

Assay: in vivo
Conditions: rhesus monkey, plasma, iv, 10 mg/kg
Protocol: The samples were then centrifuged (3200 rpm for 10 min at 4 °C), and plasma was aliquoted and kept frozen until analysis. After being coated, the plate was washed three times with PBS-T to remove the excess antibody. The remaining active sites on the plate were blocked by the addition of 150 μL 2% milk for 2 h at 37 °C. […] Absorbance at 450 nm was determined by an ELISA reader (Ultra 384, Tecan; Tecan, Research Triangle Park, NC).
No end group written: not given here.
measured.quantity: half-life (h)
One number for each entry, in h.

Which half-life value is on record for MTWEEWDKKIEEYTKKIEELIKKS [CP24, reference compound] ?
1.69

----------
Target: rhesus monkey IgG
Experiment: Isothermal titration calorimetry (ITC)
Assay type: binding
Conditions: 300 μM peptide injected into 30 μM rhesus monkey IgG, PBS, 25 °C
No end group written: not given here.
measured.quantity: Kd (µM)
One number for each entry, in µM.

Report Kd for MTWEEWDKKIEEYTKKIEELIKKS [CP24, reference compound] tested on rhesus monkey IgG.
1000

----------
Tested on: HIV-1 IIIB (subtype B, X4)
Type: cell-based
Details: IIIB (subtype B, X4)
No end group written: not given here.
measured.quantity: pIC50
One number for each entry, as −log10 of the molar value.

Report pIC50 for MTWEEWDKKIEEYTKKIEELIKKS [CP24, reference compound] tested on HIV-1 IIIB (subtype B, X4).
7.71

----------
Test: in vivo
Details: rhesus monkey, plasma, iv, 10 mg/kg
No end group written: not given here.
measured.quantity: Tmax (h)
One number for each entry, in h.

Which Tmax value is on record for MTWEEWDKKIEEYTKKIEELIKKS [CP24, reference compound] ?
2

----------
System: HIV-1 IIIB
Test: Inhibitors alone or in combination against HIV-1 IIIB
Assay type: cell-based
Conditions: experiment N6 / NBD556, HIV-1 IIIB; read-out: IC50 Alone
measured.quantity: pIC50
Numbers only, as −log10 of the molar value.

Which pIC50 value is on record for CC1(C)CC(NC(=O)C(=O)Nc2ccc(Cl)cc2)CC(C)(C)N1 ?
4.55

----------
Experiment: in vivo
Conditions: rhesus monkey, plasma, iv, 10 mg/kg
No end group written: not given here.
measured.quantity: MRT (h)
Answers are plain numbers, in h.

Which MRT value is on record for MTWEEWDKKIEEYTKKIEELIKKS [CP24, reference compound] ?
4.47
